Tested on: K4 kissing-loop RNA reporter;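 note: bound reporter read as fluorescence of individual clusters on recovered sequencing chips by microscopy, with normalized cluster intensities fitted with a binding model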
procedure_details: apparent KD of K4 kissing-loop reporter; higher = weaker reporter binding
run_conditions: Eterna round: R107; input ligand: none
# binarize apparent KD of K4 kissing-loop reporter: threshold 400 nM inclusive, high side criterion met, low side criterion not met

Prompt: Determine whether this sequence has apparent KD of K4 kissing-loop reporter no lower than 400 nM: GACGGGUUGCUGCUCAAUCCGUCGCAUGAUCGAGGACCGGUACGGCCGCCACUCGAGGCCAUGCCGUACGAGUGAUGUUCGUGCG [Xeerlaus]
Completion: criterion not met

Prompt: Does CCUAUCUCAUACGAUACCAGUGAUUAACCAGUGAUGUUGGAAUAACCAAGGAAUAUUUUUCACCCUUGGCAGCGUAUGGGAUAGG [Ex Theophylline B K4 26] have a reported apparent KD of K4 kissing-loop reporter of at least 400 nM?
Completion: criterion not met

Prompt: Test whether the sequence AGUUUAGAGUGACUCGAUAAGAGUCACAAACGAGGACCGGUACGGCCGCCACUCGAAAUAACGAGAGUGAUGUUCUCGCUGGGUA [FiskerMod 4 - Jieux - Same State Tryptophan A] records apparent KD of K4 kissing-loop reporter of 400 nM or higher.
Completion: criterion not met

Prompt: Check the entry UGAUCUCAGUGAUGUUGAGAUCAAACUGAUACCAGUCAAUUUAGUGACCCUUGGCAGCAGUAUACCAAGGGAUCUUAUGAGAUCA [Theo A SS t5] : does apparent KD of K4 kissing-loop reporter equal or exceed 400 nM?
Completion: criterion not met

Prompt: Could you verify whether the entry UGAGAUAUGAGGGAUACCAGCCAUAAGGAAAGUGUGAUGAGUGAUGUUCUGACAAGCCAAGGCCCUUGGCAGCUUUAAUAGCAUC [whbob_SS_Theo_B_th77] shows apparent KD of K4 kissing-loop reporter of no less than 400 nM?
Completion: criterion not met

Prompt: Record GCCGUACGCAUGGAUACCAGCUAGACCGAGUGAUGUUCAGGUCUGAAUGCCGGUAAUAAGAGCCCUUGGCAGCCAUGCGUACGGC ; criterion: apparent KD of K4 kissing-loop reporter no lower than 400 nM. Met?
Completion: criterion not met

Prompt: Threshold query (apparent KD of K4 kissing-loop reporter >= 400 nM) on GUGCGUAAGUGAUGUUUACGUCAGCUCCGCAAGGAUAUCCUGAUUAGGAGAAGGUGCGGGAACUAAAGACGCUCGUUCUAGCAGG [theeternabot_exclusion_KL_FMN_A_33]
Completion: criterion not met

Prompt: Dear colleague, could you confirm whether AGAGUCAGACAAAAGUCUGGCUCAGCCGAAGGAGCGUCCGUAAGGACAGGUAGGUCGCGGCUAUUUGAGUGAUGUUUGGGUUCCU [KL-SSArg-A20] has apparent KD of K4 kissing-loop reporter at or above 400 nM?
Completion: criterion not met

Prompt: # check: apparent KD of K4 kissing-loop reporter of UGCGCUAUGUCCUAAAAUGUCCUCCGGGAUACCAGAGUCUUUUUAUUCCCUUGGCAGCUUGAGUGAUGUUUGAUGCCGUUCUUGU [nnbvmullin] is greater than or equal to 400 nM
Completion: criterion met

Prompt: Dear colleague, could you confirm whether GGUGUUGUUUGUGCUGUUUUCCUCGUUCCUCGAGGACCGGUACGGCCGCCACUCGAGUGAUGUUUGGGUAGCGAUCCCUGUUAGU [Bdazzled - #8 Exc. Tryptophan A] has apparent KD of K4 kissing-loop reporter at or above 400 nM?
Completion: criterion met

Prompt: Item AUGUUUUAUAAACUCAUGGUUUCGACAGAUACCAGCUUCGAGAGGAGCCCUUGGCAGCUGCAUGAGUGAUGUUCAUGUACGAAGA [KL-XTheoA7] with apparent KD of K4 kissing-loop reporter of 400 nM or above?
Completion: criterion met
